Numbers sourced from ChEMBL document CHEMBL1154516.

Items are presented alongside their recorded half-life.
- procedure.summary: in vitro
- particulars: human, liver microsomes
The reply should contain only the number, in min.

For reference, reported half-life for COc1ccc(-n2nc(C(N)=O)c3c2C(=O)N(c2ccc(C4(CC(N)=O)CC4)cc2)CC3)cc1.O=C(O)C(F)(F)F stands at 97

For reference, reported half-life for COc1ccc(-n2nc(C#N)c3c2C(=O)N(c2ccc(C4(CN(C)C)CC4)cc2)CC3)cc1.O=C(O)C(F)(F)F stands at 178

For reference, reported half-life for COc1ccc(-n2nc(S(C)(=O)=O)c3c2C(=O)N(c2ccc(C4(Cn5ccnc5C)CC4)cc2)CC3)cc1.O=C(O)C(F)(F)F stands at 5

For reference, reported half-life for COc1ccc(-n2nc(S(C)(=O)=O)c3c2C(=O)N(c2ccc(C4(CN5CCOCC5)CC4)cc2)CC3)cc1.O=C(O)C(F)(F)F stands at 25

For reference, reported half-life for CNC1(c2ccc(N3CCc4c(C(N)=O)nn(-c5ccc(OC)cc5)c4C3=O)cc2)CC1.O=C(O)C(F)(F)F stands at 146

For reference, reported half-life for COc1ccc(-n2nc(C(N)=O)c3c2C(=O)N(c2ccc(C4(N(C)CCO)CC4)cc2)CC3)cc1.O=C(O)C(F)(F)F stands at 47

For reference, reported half-life for COc1ccc(-n2nc(C(N)=O)c3c2C(=O)N(c2ccc(C4(CN5CCCC5=O)CC4)cc2)CC3)cc1.O=C(O)C(F)(F)F stands at 10

For reference, reported half-life for COc1ccc(N2N=C(S(C)(=O)=O)C3CCN(c4ccc(C5(CN6CCCC6)CC5)cc4)C(=O)C32)cc1.O=C(O)C(F)(F)F (centres undefined) stands at 37
